- System: BJeLR fibroblast viability, Alamar Blue fluorescence, 48 h
- TEST_DETAILS: BJeLR fibroblast growth inhibition, viability readout – cell-based, alamar blue fluorescence, 48 h, cherrypicked samples, dose response (AID 2610);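 note: BJ fibroblasts with hTERT plus SV40 large and small T and HRAS V12; EC50 for loss of viable cells so potency reflects cytotoxic compounds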
Results filed as inconclusive are left out. Active and inactive are the calls of the source.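 Rule for the calls: active = EC50 no more than tenfold above the top concentration tested, with valid fit and all samples agreeing; inconclusive = flat fit at 30 to 70% inhibition, poor fit, or split samples; inactive = EC50 beyond tenfold the top concentration tested.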
Please reply with one of these outcomes: T for active, F for inactive

Past entries and their recorded results:
>>> assigned_class("CC1=CC(=O)C=C(C)C1=NOS(=O)(=O)c1ccccc1")
"T"
>>> assigned_class("CCN(CC)C(=O)c1ccc(NC(=O)Nc2ccccc2F)cc1")
"F"
>>> assigned_class("C/C(=N\\NC(=O)c1ccc(F)cc1)c1ccccn1")
"T"

Here is another compound to look at.
**Query** How was `O=C(COc1ccc(Cl)cc1)Nc1ccc(C(=O)NCc2cccnc2)cc1` classified in this test?
**Result** T
